Biological target: Cytochrome P450 1A2 (Homo sapiens, UniProt P05177)
Sequence (P05177 whole entry): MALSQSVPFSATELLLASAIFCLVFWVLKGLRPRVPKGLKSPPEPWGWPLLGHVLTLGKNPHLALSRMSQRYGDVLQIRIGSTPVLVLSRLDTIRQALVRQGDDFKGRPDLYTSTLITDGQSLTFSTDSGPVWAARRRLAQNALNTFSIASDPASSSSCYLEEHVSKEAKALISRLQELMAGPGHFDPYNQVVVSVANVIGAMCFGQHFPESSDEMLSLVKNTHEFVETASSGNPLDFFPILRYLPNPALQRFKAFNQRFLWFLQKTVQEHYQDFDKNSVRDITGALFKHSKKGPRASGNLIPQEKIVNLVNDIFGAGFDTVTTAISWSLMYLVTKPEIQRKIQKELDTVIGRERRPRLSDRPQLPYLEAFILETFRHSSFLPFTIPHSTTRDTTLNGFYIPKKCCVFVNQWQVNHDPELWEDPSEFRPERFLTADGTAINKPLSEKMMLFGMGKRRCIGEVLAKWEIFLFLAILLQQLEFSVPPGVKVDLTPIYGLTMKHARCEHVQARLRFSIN
pIC50: −log10 of the molar value.
value kind: pIC50

Request: System Cytochrome P450 1A2 (Homo sapiens, UniProt P05177). Read-out pIC50. Item Cc1c(NC(=O)CN2CCN(CC3CCN(c4ccc5c(c4)C(=O)N(C4CCC(=O)NC4=O)C5=O)CC3)CC2)c[nH]c1/C=C1\C(=O)Nc2ccc(F)cc21 (stereo unspecified) . Report value.
Result: < 4.30

The origin of these recorded values is ChEMBL document CHEMBL5543162.
